Origin of values: ChEMBL document CHEMBL1268964

Test: Cytotoxicity against human IOSE-80PC cells by MTT assay
Type: cell-based
Measured Parameter: IC50 (µM)
Output spec: scalar in µM, unitless text.

Give IC50 for the following molecule: CCc1cc2c(cc1-c1cc3ccc(OC)c(OC)c3c(=O)n1C)OCO2 68
